EC50 for assorted compounds
Tested on: HBV
protocol: Anti-HBV activity, HepG2.2.15 stable transfected cell line, HBV DNA from secreted virions by realtime PCR
Type: cell-based
condition.set: Hepatitis B virus, 144 h; HepG2.2.15 cells, 6 days of treatment, HBV DNA from secreted virions; read-out: HepG 2.2.15 EC50
Express the result in nM but write the number alone.

Use the examples below as a reference point.
{"columns": ["chemical.smiles", "test.target", "EC50 [nM]"],
 "data": [
  ["CC[C@@H](C)NC(=O)C(=O)c1cc(C(=O)Nc2ccc(F)c(C)c2)n(C)c1", "HBV", 14],
  ["Cc1cc(NC(=O)c2cc(C(=O)C(=O)N[C@H](C)CC#N)cn2C)ccc1F", "HBV", 170]
]}

Ask: May I ask what EC50 has been recorded for C[C@@H](NC(=O)C(=O)c1cn(C)c(C(=O)Nc2ccc(F)c(C#N)c2)c1Cl)C(F)(F)F ?
Reply: 20

Ask: Reported EC50 for Cn1cc(C(=O)C(=O)NC(C)(C)C)cc1C(=O)Nc1ccc(F)c(C#N)c1 : what is it?
Reply: 27

Ask: # lookup: EC50 of Cn1cc(C(=O)C(=O)NC2(C)COC2)cc1C(=O)Nc1ccc(F)c(F)c1
Reply: 50

Ask: Find the recorded EC50 belonging to Cn1cc(C(=O)C(=O)NC2(C)COC2)cc1C(=O)Nc1ccc(F)c(C#N)c1 and report it.
Reply: 48

Ask: Looking for the measured EC50 of Cn1cc(C(=O)C(=O)NC(C)(C)C)cc1C(=O)Nc1cc(F)c(F)c(Cl)c1 , can you help?
Reply: 30

Ask: EC50 for Cn1cc(C(=O)C(=O)NC(C)(C)C)cc1C(=O)Nc1ccc(F)c(F)c1 ?
Reply: 72

Ask: Reported EC50, compound C[C@@H](NC(=O)C(=O)c1cc(C(=O)Nc2cc(F)c(F)c(Cl)c2)n(C)c1)C(F)(F)F : ____
Reply: 54

* * *

Test system: HBV
protocol: Anti-HBV activity, HepG2.117 inducible HBV producing cell line (Tet-off), intracellular HBV DNA by realtime PCR
Format: cell-based
condition.set: Hepatitis B virus, 72 h; HepG2.117 cells, 3 days of treatment, intracellular HBV DNA; read-out: HepG2 117 EC50
metric: pEC50
API: returns pEC50 as number; meaning -log10 of concentration in mol/L.

Below, each entry is followed by its recorded pEC50 result.
{"columns": ["compound", "test.target", "metric", "measured"],
 "data": [
  ["Cc1c(C(=O)C(=O)N[C@H](C)C(F)(F)F)cc(C(=O)Nc2ccc(F)c(C#N)c2)n1C", "HBV", "pEC50", 7.72],
  ["C[C@@H](NC(=O)C(=O)c1cn(C)c(C(=O)Nc2ccc(F)c(C#N)c2)c1F)C(F)(F)F", "HBV", "pEC50", 7.85],
  ["Cn1c(Cl)c(C(=O)C(=O)NC2(C(F)(F)F)CCOC2)c(F)c1C(=O)Nc1ccc(F)c(C#N)c1 (stereo not drawn)", "HBV", "pEC50", 8.10],
  ["Cn1cc(C(=O)C(=O)NC2(C(F)(F)F)CCOC2)c(F)c1C(=O)Nc1ccc(F)c(C#N)c1 (stereo not drawn)", "HBV", "pEC50", 8.22],
  ["CC[C@H](C)[C@@H](CO)NC(=O)C(=O)c1cc(C(=O)Nc2ccc(F)c(C#N)c2)n(C)c1C", "HBV", "pEC50", 7.31],
  ["Cn1cc(C(=O)C(=O)NC2(C)CC(F)(F)C2)c(F)c1C(=O)Nc1ccc(F)c(C#N)c1", "HBV", "pEC50", 8.40],
  ["Cc1c(C(=O)C(=O)NC(C)C)cc(C(=O)Nc2ccc(F)c(C#N)c2)n1C", "HBV", "pEC50", 7.17],
  ["Cn1c(Br)c(C(=O)C(=O)NC(C)(C)C)c(Cl)c1C(=O)Nc1ccc(F)c(C#N)c1", "HBV", "pEC50", 8.40]
]}

Ask: # lookup: pEC50 of Cn1c(C(=O)Nc2ccc(F)c(C#N)c2)c(Cl)c(C(=O)C(=O)NC(C)(C)C)c1C(F)(F)F
Reply: 6.61

Ask: For Cn1c(C#N)c(C(=O)C(=O)NC(C)(C)C)c(Cl)c1C(=O)Nc1ccc(F)c(C#N)c1 , what is its reported pEC50?
Reply: 7.47

Ask: What value of measured pEC50 is listed for Cc1c(C(=O)C(=O)NC2(CO)COC2)cc(C(=O)Nc2ccc(F)c(C#N)c2)n1C ?
Reply: 7.62

Ask: Entry C[C@@H](NC(=O)C(=O)c1cc(C(=O)Nc2cc(F)c(F)c(Cl)c2)n(C)c1)C(F)(F)F has what pEC50?
Reply: 6.43

Ask: What value of measured pEC50 is listed for Cn1cc(C(=O)C(=O)NC2(C)CC(F)(F)C2)c(Cl)c1C(=O)Nc1ccc(F)c(C#N)c1 ?
Reply: 8.15

Ask: Data request, read-out pEC50, for Cc1c(C(=O)C(=O)NC(C)(C)C(F)(F)F)cc(C(=O)Nc2ccc(F)c(C#N)c2)n1C
Reply: 8.22

Ask: Can you look up the measured pEC50 of Cc1c(C(=O)C(=O)NC2(C(F)(F)F)CCC(O)CC2)cc(C(=O)Nc2ccc(F)c(C#N)c2)n1C (stereo not drawn) for me?
Reply: 8.52

Ask: Sample CC[C@@H](NC(=O)C(=O)c1cn(C)c(C(=O)Nc2ccc(F)c(C#N)c2)c1Cl)C(F)(F)F — what was its pEC50?
Reply: 7.82

Ask: Give its pEC50 value. Item: C[C@@H](NC(=O)C(=O)c1cn(C)c(C(=O)Nc2ccc(F)c(C#N)c2)c1F)C(C)(F)F
Reply: 7.82

Ask: Please give the measured pEC50 for this compound: CCC(C)(CO)NC(=O)C(=O)c1cc(C(=O)Nc2ccc(F)c(C#N)c2)n(C)c1C (stereo not drawn)
Reply: 7.89

Ask: Would you mind telling me what pEC50 value was observed for CCCC[C@H](CO)NC(=O)C(=O)c1cc(C(=O)Nc2ccc(F)c(C#N)c2)n(C)c1C ?
Reply: 7.85

Ask: Request the reported pEC50 associated with CC[C@@H](C)NC(=O)C(=O)c1cc(C(=O)Nc2ccc(F)c(C#N)c2)n(C)c1C
Reply: 7.41

Ask: Fill blank: measured pEC50 of the compound Cn1cc(C(=O)C(=O)NC(C)(C)C)cc1C(=O)Nc1cc(F)c(F)c(Cl)c1 is ____.
Reply: 7.42

Ask: Request the reported pEC50 associated with COCC(C)(C)NC(=O)C(=O)c1cn(C)c(C(=O)Nc2ccc(F)c(C#N)c2)c1F
Reply: 8.22

Ask: So what's the measured pEC50 for this one? C[C@@H](NC(=O)C(=O)c1c(F)c(C(=O)Nc2ccc(F)c(C#N)c2)n(C)c1Cl)C(F)(F)F
Reply: 6.52

Ask: Find the recorded pEC50 belonging to C[C@H](NC(=O)C(=O)c1cc(C(=O)Nc2ccc(F)c(C#N)c2)n(C)c1)C(F)(F)F and report it.
Reply: 7.38

Ask: Entry COCC(C)(NC(=O)C(=O)c1cc(C(=O)Nc2ccc(F)c(C#N)c2)n(C)c1C)C(F)(F)F (stereo not drawn) has what pEC50?
Reply: 8.15

Ask: Looking for the measured pEC50 of C[C@@H](NC(=O)C(=O)c1c(Cl)c(C(=O)Nc2ccc(F)c(C#N)c2)n(C)c1Br)C(F)(F)F , can you help?
Reply: 7.85

Ask: Record request: pEC50 value, item Cn1cc(C(=O)C(=O)NC2(C)COC2)cc1C(=O)Nc1cc(F)c(F)c(Cl)c1
Reply: 6.24

Ask: Which pEC50 value is on record for Cc1cc(NC(=O)c2cc(C(=O)C(=O)N[C@H](C)C(F)(F)F)cn2C)ccc1F ?
Reply: 7.00

Ask: # get_value(readout='pEC50', item= Cc1c(C(=O)C(=O)N[C@H](C)C(C)(F)F)c(Cl)c(C(=O)Nc2ccc(F)c(C#N)c2)n1C )
Reply: 8.52
